# Test system: human colon cancer HT 29 transplanted tumor
# assay.name: Nude mice transplanted tumor test
# Type: in vivo, female Balb/cA nude mice
# run.parameters: d0, at grouping before administration (baseline)
Hi there, I'd appreciate the recorded d0 Wave ± SD (average bodyweight of nude mice) for every entry that follows.
// no unit, no text: just the number

Enquiry: Request body: readout d0 Wave ± SD (average bodyweight of nude mice), system human colon cancer HT 29 transplanted tumor, query `C=CC(=O)Nc1c(C)[nH]c(/C=C2\C(=O)Nc3ccc(F)cc32)c1C` . Return the value.
Return: 19.4

Enquiry: Request body: readout d0 Wave ± SD (average bodyweight of nude mice), system human colon cancer HT 29 transplanted tumor, query `CCN(CC)CC(=O)Nc1c(C)[nH]c(/C=C2\C(=O)Nc3ccc([N+](=O)[O-])cc32)c1C` . Return the value.
Return: 19.3

Enquiry: Request body: readout d0 Wave ± SD (average bodyweight of nude mice), system human colon cancer HT 29 transplanted tumor, query `Cc1[nH]c(/C=C2\C(=O)Nc3ccc(F)cc32)c(C)c1NC(=O)CCCN(C)C` . Return the value.
Return: 18.9
